The origin of these recorded values is paper PMC9230201.

Run description: Plasma pharmacokinetics of phenolic metabolites after intake of the GCPE nutraceutical (LC-MS-QToF)
Condition description: week 8, GCPE nutraceutical with 300 mg hydroxycinnamic acids, mean ± SEM, n = 9

>  <Compound>
O=C(O)CNC(=O)c1cccc(O)c1 [3′-Hydroxyhippuric acid]

>  <Cmax [µM]>
1.3

$$$$
>  <Compound>
O=C(O)C=Cc1ccc(OC2OC(C(=O)O)C(O)C(O)C2O)cc1 (stereo not drawn) [CoA-4′-glucuronide, Cinnamic acid-4′-glucuronide]

>  <Cmax [µM]>
0.038

$$$$
>  <Compound>
O=C(O)CNC(=O)c1ccc(O)cc1 [4′-Hydroxyhippuric acid]

>  <Cmax [µM]>
0.09

$$$$
>  <Compound>
COc1ccc(CCC(=O)O)cc1O[C@@H]1O[C@H](C(=O)O)[C@@H](O)[C@H](O)[C@H]1O [DHiFA-3′-glucuronide]

>  <Cmax [µM]>
0.07

$$$$
>  <Compound>
COc1cc(CCC(=O)O)ccc1OS(=O)(=O)O [DHFA-4′-sulfate]

>  <Cmax [µM]>
0.17

$$$$
>  <Compound>
COc1cc(/C=C/C(=O)OC2[C@H](O)CC(O)(C(=O)O)C[C@H]2O)ccc1O (stereo partly drawn)

>  <Cmax [µM]>
0.031

$$$$
>  <Compound>
O=C(O)Cc1ccc(O)cc1 [4′-Hydroxyphenylacetic acid]

>  <Cmax [µM]>
7

$$$$
>  <Compound>
COc1cc(C=CC(=O)O)ccc1OC1OC(C(=O)O)C(O)C(O)C1O (stereo not drawn) [FA-4′-glucuronide, 3′-Methoxycinnamic acid-4′-glucuronide]

>  <Cmax [µM]>
0.009

$$$$
>  <Compound>
COc1cc(CC(=O)O)ccc1O [4′-Hydroxy-3′-methoxyphenylacetic acid]

>  <Cmax [µM]>
0.12

$$$$

----------
Run description: Plasma pharmacokinetics of phenolic metabolites after intake of the GCPE nutraceutical (LC-MS-QToF)
Condition description: human, oral, 300 mg, Cmax, week 8, GCPE nutraceutical with 300 mg hydroxycinnamic acids, mean ± SEM, n = 9
Experimental endpoint: Cmax (nM)

>  <Molecule>
O=C(O)c1cccc(O)c1 [3-Hydroxybenzoic acid]

>  <Unit descriptor>
nM

>  <Quantitative result>
100

$$$$
>  <Molecule>
O=C(O)c1ccc(O)cc1 [4-Hydroxybenzoic acid]

>  <Unit descriptor>
nM

>  <Quantitative result>
80

$$$$
>  <Molecule>
COc1ccc(CCC(=O)O)cc1O

>  <Unit descriptor>
nM

>  <Quantitative result>
70

$$$$
>  <Molecule>
COc1ccc(CCC(=O)O)cc1OC [Dihydrodimethoxycinnamic acid, 3-(3′,4′-Dimethoxyphenyl)propanoic acid]

>  <Unit descriptor>
nM

>  <Quantitative result>
120

$$$$
>  <Molecule>
O=C(O)CCc1ccc(O)c(O)c1 [DHCA, 3-(3′,4′-Dihydroxyphenyl)propanoic acid]

>  <Unit descriptor>
nM

>  <Quantitative result>
220

$$$$
>  <Molecule>
COc1cc(CCC(=O)O)ccc1O

>  <Unit descriptor>
nM

>  <Quantitative result>
250

$$$$
>  <Molecule>
COc1ccc(/C=C/C(=O)O)cc1O [iFA, 3′-Hydroxy-4′-methoxycinnamic acid]

>  <Unit descriptor>
nM

>  <Quantitative result>
32

$$$$
>  <Molecule>
COc1cc(C(=O)O)ccc1O [4-Hydroxy-3-methoxybenzoic acid]

>  <Unit descriptor>
nM

>  <Quantitative result>
1600

$$$$

----------
Parameter: Amount excreted in urine, 9-11 h. Scope: all listed entries.
Run description: Urinary excretion of phenolic metabolites after intake of the GCPE nutraceutical
Condition description: week 8, interval 9–11 h
Experimental endpoint: Amount excreted in urine, 9-11 h (µmol)

>  <Molecule>
COc1cc(CCC(=O)O)ccc1O[C@@H]1O[C@H](C(=O)O)[C@@H](O)[C@H](O)[C@H]1O [DHFA-4′-glucuronide]

>  <Experimental endpoint>
Amount excreted in urine, 9-11 h

>  <Unit descriptor>
µmol

>  <Quantitative result>
0.8

$$$$
>  <Molecule>
O=C(O)c1ccc(O)c(O)c1 [3,4-Dihydroxybenzoic acid]

>  <Experimental endpoint>
Amount excreted in urine, 9-11 h

>  <Unit descriptor>
µmol

>  <Quantitative result>
0.018

$$$$
>  <Molecule>
COc1cc(C=CC(=O)O)ccc1OS(=O)(=O)O [FA-4′-sulfate, 3′-Methoxycinnamic acid-4′-sulfate]

>  <Experimental endpoint>
Amount excreted in urine, 9-11 h

>  <Unit descriptor>
µmol

>  <Quantitative result>
7

$$$$
>  <Molecule>
COc1cc(/C=C/C(=O)O[C@@H]2C[C@@](O)(C(=O)O)C[C@@H](O)[C@@H]2O)ccc1O [3-Feruloylquinic acid]

>  <Experimental endpoint>
Amount excreted in urine, 9-11 h

>  <Unit descriptor>
µmol

>  <Quantitative result>
0.014

$$$$
>  <Molecule>
COc1cc(CCC(=O)OC2CC(O)(C(=O)O)CC(O)C2O)ccc1O (centres unmarked) [5-Dihydroferuloylquinic acid]

>  <Experimental endpoint>
Amount excreted in urine, 9-11 h

>  <Unit descriptor>
µmol

>  <Quantitative result>
0.008

$$$$
>  <Molecule>
O=C(O)CCc1ccc(O)cc1 [DHCoA, 3-(4′-Hydroxyphenyl)propanoic acid]

>  <Experimental endpoint>
Amount excreted in urine, 9-11 h

>  <Unit descriptor>
µmol

>  <Quantitative result>
0.8

$$$$
>  <Molecule>
O=C(O)Cc1ccc(O)c(O)c1 [3′,4′-Dihydroxyphenylacetic acid]

>  <Experimental endpoint>
Amount excreted in urine, 9-11 h

>  <Unit descriptor>
µmol

>  <Quantitative result>
0.09

$$$$
>  <Molecule>
O=C(O)CCc1ccc(OS(=O)(=O)O)c(O)c1 [DHCA-4′-sulfate]

>  <Experimental endpoint>
Amount excreted in urine, 9-11 h

>  <Unit descriptor>
µmol

>  <Quantitative result>
0.6

$$$$

----------
Run description: Urinary excretion of phenolic metabolites after intake of the GCPE nutraceutical
Condition description: urine; week 0
Parameter: log10(Urinary excretion). Scope: all listed entries.
Experimental endpoint: log10(Urinary excretion) (log10 of the value in µmol/24 h)

>  <Molecule>
COc1cc(CCC(=O)O)ccc1O[C@@H]1O[C@H](C(=O)O)[C@@H](O)[C@H](O)[C@H]1O [DHFA-4′-glucuronide]

>  <log10(Urinary excretion)>
0.70

$$$$
>  <Molecule>
O=C(O)CCc1ccc(O)c(O)c1 [DHCA, 3-(3′,4′-Dihydroxyphenyl)propanoic acid]

>  <log10(Urinary excretion)>
1.20

$$$$
>  <Molecule>
COc1cc(C=CC(=O)O)ccc1OS(=O)(=O)O [FA-4′-sulfate, 3′-Methoxycinnamic acid-4′-sulfate]

>  <log10(Urinary excretion)>
1.51

$$$$
>  <Molecule>
O=C(O)CCc1ccc(O)cc1 [DHCoA, 3-(4′-Hydroxyphenyl)propanoic acid]

>  <log10(Urinary excretion)>
0.60

$$$$
>  <Molecule>
O=C(CCc1ccc(O)c(O)c1)OC1CC(O)(C(=O)O)CC(O)C1O (stereo not shown) [3-Dihydrocaffeoylquinic acid]

>  <log10(Urinary excretion)>
-0.46

$$$$
>  <Molecule>
O=C(O)c1ccc(O)cc1 [4-Hydroxybenzoic acid]

>  <log10(Urinary excretion)>
0.11

$$$$
>  <Molecule>
O=C(O)CCc1ccc(OS(=O)(=O)O)c(O)c1 [DHCA-4′-sulfate]

>  <log10(Urinary excretion)>
0.90

$$$$

----------
Run description: Urinary excretion of phenolic metabolites after intake of the GCPE nutraceutical
Condition description: week 8, interval 6–9 h
Parameter: Amount excreted in urine, 6-9 h. Scope: all listed entries.

>  <Molecule>
COc1cc(/C=C/C(=O)O[C@@H]2C[C@@](O)(C(=O)O)C[C@@H](O)[C@@H]2O)ccc1O [3-Feruloylquinic acid]

>  <Unit descriptor>
µmol

>  <Amount excreted in urine, 6-9 h>
0.05

$$$$
>  <Molecule>
O=C(CCc1ccc(O)c(O)c1)OC1CC(O)(C(=O)O)CC(O)C1O (stereo not shown) [3-Dihydrocaffeoylquinic acid]

>  <Unit descriptor>
µmol

>  <Amount excreted in urine, 6-9 h>
0.04

$$$$
>  <Molecule>
COc1cc(CCC(=O)OC2C(O)CC(O)(C(=O)O)CC2O)ccc1O (stereo not shown) [4-Dihydroferuloylquinic acid]

>  <Unit descriptor>
µmol

>  <Amount excreted in urine, 6-9 h>
0.011

$$$$
>  <Molecule>
COc1cc(/C=C/C(=O)NCC(=O)O)ccc1O

>  <Unit descriptor>
µmol

>  <Amount excreted in urine, 6-9 h>
3

$$$$

----------
Run description: Urinary excretion of phenolic metabolites after intake of the GCPE nutraceutical
Condition description: week 0, interval 11–24 h
Note to self: values exactly at 1 µmol are 1. So Amount excreted in urine, 11-24 h at or above 1 µmol is 1, below is -1.

>  <Compound>
O=C(/C=C/c1ccc(O)c(O)c1)OC1[C@H](O)CC(O)(C(=O)O)C[C@H]1O (stereo partly shown)

>  <Category>
-1

$$$$
>  <Compound>
COc1cc(CCC(=O)OC2CC(O)(C(=O)O)CC(O)C2O)ccc1O (stereo not shown) [3-Dihydroferuloylquinic acid]

>  <Category>
-1

$$$$
>  <Compound>
O=C(O)CCc1ccc(OS(=O)(=O)O)c(O)c1 [DHCA-4′-sulfate]

>  <Category>
1

$$$$
>  <Compound>
O=C(O)CCc1ccc(O[C@@H]2O[C@H](C(=O)O)[C@@H](O)[C@H](O)[C@H]2O)cc1 [DHCoA-4′-glucuronide, 3-(Phenyl)propanoic acid-4′-glucuronide]

>  <Category>
1

$$$$
>  <Compound>
O=C(O)c1cccc(O)c1 [3-Hydroxybenzoic acid]

>  <Category>
-1

$$$$
>  <Compound>
COc1ccc(C=CC(=O)O)cc1O[C@@H]1O[C@H](C(=O)O)[C@@H](O)[C@H](O)[C@H]1O [iFA-3′-glucuronide, 4′-Methoxycinnamic acid-3′-glucuronide]

>  <Category>
1

$$$$
>  <Compound>
O=C(O)CCc1ccc(O)c(OS(=O)(=O)O)c1 [DHCA-3′-sulfate]

>  <Category>
1

$$$$
